Collected Plasma Levels (μM) 6 hr values appear next to each entry.
Assay: Blood level screening after oral dose
Assay type: in vivo, Sprague-Dawley rats
Details: rat, oral gavage 10 mg/kg, 6 hr
Supply the numeric figure in µM, leaving out any unit text.

Sample answers from the record:
| compound | Plasma Levels (μM) 6 hr / µM |
| --- | --- |
| Cc1cccc(Cc2nnc(C(=O)C(NC(=O)Cn3c(=O)c(N)cc4ccccc43)C(C)C)o2)c1 (racemic) | 0.409 |
| Cc1cccc(Cc2nnc(C(=O)[C@@H](NC(=O)Cn3c(-c4ccc(F)cc4)ccc(N)c3=O)C(C)C)o2)c1 | 0.73 |
| Cc1cccc(Cc2nnc(C(=O)[C@@H](NC(=O)CN3C(=O)NC(c4ccccc4)(c4ccccc4)C3=O)C(C)C)o2)c1 | 0.1 |

Which Plasma Levels (μM) 6 hr value is on record for `Cc1cccc(Cc2nnc(C(=O)[C@@H](NC(=O)CN3C(=O)N[C@H](CC(=O)N(C)C)C3=O)C(C)C)o2)c1` ? 0.186

Which Plasma Levels (μM) 6 hr value is on record for `Cc1cccc(Cc2nnc(C(=O)[C@@H](NC(=O)CN3C(=O)N[C@@H](C(C)C)C3=O)C(C)C)o2)c1` ? 0.29

Which Plasma Levels (μM) 6 hr value is on record for Cc1cccc(Cc2nnc(C(=O)[C@@H](NC(=O)CN3C(=O)NC(C)(c4ccccn4)C3=O)C(C)C)o2)c1 (stereo partly drawn) ? 0.25

----------
Experiment: Blood level screening after oral dose
Type: in vivo, Sprague-Dawley rats
Conditions: male, Sprague-Dawley, plasma; rat, oral gavage 10 mg/kg, 1 hr; read-out: Plasma Levels (μM) 1 hr
Collected concentration at 1 h values appear next to each entry.
Supply the numeric figure in µM, leaving out any unit text.

Which concentration at 1 h value is on record for Cc1cccc(Cc2nnc(C(=O)C(NC(=O)CN3C(=O)CCc4ccccc43)C(C)C)o2)c1 (stereo not shown) [CE2088] ? 0.801

Which concentration at 1 h value is on record for Cc1cccc(Cc2nnc(C(=O)[C@@H](NC(=O)CN3C(=O)CNC3=O)C(C)C)o2)c1 [CE2238] ? 2.57

Which concentration at 1 h value is on record for Cc1cccc(Cc2nnc(C(=O)[C@@H](NC(=O)Cn3c(=O)c(N)cc4ccccc43)C(C)C)o2)c1 [CE2113] ? 1.83

Which concentration at 1 h value is on record for Cc1cccc(Cc2nnc(C(=O)[C@@H](NC(=O)CN3C(=O)NC4(Cc5ccccc5C4)C3=O)C(C)C)o2)c1 [CE2253] ? 0.282

----------
Experiment: Blood level screening after oral dose
Type: in vivo, Sprague-Dawley rats
Settings: rat, oral gavage 10 mg/kg, 6 hr
Collected Plasma Levels (μM) 6 hr values appear next to each entry.
Supply the numeric figure in µM, leaving out any unit text.

Sample answers from the record:
| compound | Plasma Levels (μM) 6 hr / µM |
| --- | --- |
| Cc1cccc(Cc2nnc(C(=O)[C@@H](NC(=O)CN3C(=O)NC4(CCCC4)C3=O)C(C)C)o2)c1 [CE2231] | 0.531 |
| CC(C)[C@H](NC(=O)CN1C(=O)N[C@H](Cc2ccc(O)cc2)C1=O)C(=O)c1nnc(Cc2ccc3c(c2)OCO3)o1 [CE2256] | 0.2 |

Next item in the queue.
Which Plasma Levels (μM) 6 hr value is on record for Cc1cccc(Cc2nnc(C(=O)[C@@H](NC(=O)CN3C(=O)CN=C(c4ccccc4N(C)C)c4ccccc43)C(C)C)o2)c1 [CE2258] ? 1.212
